- target_or_system: T1, wild-type human integrin αvβ5 (octyl β-D-glucopyranoside preparation) (human, UniProt P06756 31-1048; P18084 24-799)
- T1 construct: From Immunological Sciences
- T1 sequence (P06756 31-1048, chain 1 of 2): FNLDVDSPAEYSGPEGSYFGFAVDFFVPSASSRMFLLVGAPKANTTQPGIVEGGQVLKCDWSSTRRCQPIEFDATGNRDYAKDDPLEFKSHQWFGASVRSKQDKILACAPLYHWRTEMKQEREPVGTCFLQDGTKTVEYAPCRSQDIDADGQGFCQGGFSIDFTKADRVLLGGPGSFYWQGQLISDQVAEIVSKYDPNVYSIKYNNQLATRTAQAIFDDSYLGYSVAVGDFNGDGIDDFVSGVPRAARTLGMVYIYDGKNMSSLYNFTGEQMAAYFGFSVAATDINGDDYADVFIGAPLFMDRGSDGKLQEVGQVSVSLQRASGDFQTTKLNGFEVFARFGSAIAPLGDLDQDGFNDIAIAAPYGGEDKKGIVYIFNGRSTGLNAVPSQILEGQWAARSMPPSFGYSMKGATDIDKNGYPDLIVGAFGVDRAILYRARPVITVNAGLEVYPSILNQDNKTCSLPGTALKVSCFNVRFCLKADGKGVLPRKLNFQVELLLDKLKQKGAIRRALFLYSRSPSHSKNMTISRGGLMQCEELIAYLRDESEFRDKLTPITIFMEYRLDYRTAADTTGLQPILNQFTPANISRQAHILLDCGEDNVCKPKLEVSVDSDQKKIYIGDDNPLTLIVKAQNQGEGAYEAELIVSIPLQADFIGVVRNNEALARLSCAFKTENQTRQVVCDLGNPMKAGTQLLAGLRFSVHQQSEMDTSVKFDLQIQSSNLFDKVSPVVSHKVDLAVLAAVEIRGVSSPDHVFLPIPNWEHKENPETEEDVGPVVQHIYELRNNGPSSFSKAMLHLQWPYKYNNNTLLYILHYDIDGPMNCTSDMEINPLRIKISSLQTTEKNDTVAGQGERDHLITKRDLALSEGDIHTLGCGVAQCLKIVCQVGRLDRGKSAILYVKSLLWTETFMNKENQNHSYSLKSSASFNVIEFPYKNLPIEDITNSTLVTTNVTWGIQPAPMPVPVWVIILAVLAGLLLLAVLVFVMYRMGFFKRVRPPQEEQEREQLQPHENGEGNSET
- T1 sequence (P18084 24-799, chain 2 of 2): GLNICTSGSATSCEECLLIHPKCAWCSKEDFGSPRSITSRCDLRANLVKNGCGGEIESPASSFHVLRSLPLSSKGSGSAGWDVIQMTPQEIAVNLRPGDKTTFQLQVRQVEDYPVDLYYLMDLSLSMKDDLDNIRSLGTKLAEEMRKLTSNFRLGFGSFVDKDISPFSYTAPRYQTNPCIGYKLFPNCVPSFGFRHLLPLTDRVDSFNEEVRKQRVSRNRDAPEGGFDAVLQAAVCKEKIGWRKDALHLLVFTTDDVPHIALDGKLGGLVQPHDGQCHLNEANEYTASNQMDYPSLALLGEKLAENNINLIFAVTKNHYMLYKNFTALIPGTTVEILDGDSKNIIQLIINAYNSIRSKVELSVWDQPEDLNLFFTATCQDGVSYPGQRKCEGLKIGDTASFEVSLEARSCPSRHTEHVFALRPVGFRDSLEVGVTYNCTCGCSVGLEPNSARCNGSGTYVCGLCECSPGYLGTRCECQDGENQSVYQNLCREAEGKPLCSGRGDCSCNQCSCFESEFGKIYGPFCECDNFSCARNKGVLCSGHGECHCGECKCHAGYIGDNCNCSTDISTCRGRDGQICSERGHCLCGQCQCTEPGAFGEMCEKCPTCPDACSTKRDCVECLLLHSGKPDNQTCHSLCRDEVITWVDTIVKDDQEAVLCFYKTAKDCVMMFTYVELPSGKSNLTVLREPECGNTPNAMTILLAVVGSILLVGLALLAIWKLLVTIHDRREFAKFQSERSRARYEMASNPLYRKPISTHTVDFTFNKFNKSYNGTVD
- procedure_summary: direct binding to integrin-coated microtiter plates, one site specific binding fit
*1 amine or outer side, *2 acyl side, *3 side chain or, on linkers, in order; H or OH if unused. Where no end group is shown, it is not given here. [ ]: non-standard residue; d: D form. The star is where a group is joined. Biotin = O=C1N[C@H]2[C@H](CS[C@H]2CCCCC(=O)*)N1; βAsp = O=C(O)[C@H](CC(=O)[*:2])N[*:1]
experimental_readout: Kd (nM)
Please respond with the number in nM and leave the unit unwritten.

Q: Entry Ac-C[βAsp]GRCGVRSSSRTPSDK(Biotin)Y (also: in complex with streptavidin-peroxidase conjugate) : reported Kd = ?
A: 1.7

Data provenance: patent US20220402980A1
